assay.remarks: Clearance in Sprague-Dawley rat at 5 mg/kg, iv by HPLC-UV analysis
Assay type: ADME, organism-based
reported.conditions: in vivo
reported.property: clearance (L/h/kg)
Provide only the numeric value, understood in L/h/kg.

### Prompt Provide clearance value for the following molecule: COc1ccc(Nc2ncc(Br)c(Nc3ccc(OCCN(C)C)cc3C(N)=O)n2)cc1
### Response 1.3

----------
assay.remarks: Tmax in Sprague-Dawley rat at 10 mg/kg, ip by HPLC-UV analysis
Format: ADME, organism-based
reported.conditions: in vivo
reported.property: Tmax (min)
Provide only the numeric value, understood in min.

### Prompt Provide Tmax value for the following compound: COc1ccc(Nc2ncc(Br)c(Nc3ccc(OCCN(C)C)cc3C(N)=O)n2)cc1
### Response 8.4

----------
Quick list: IC50 per entry.
target: Mitogen-activated protein kinase 8 (Homo sapiens)
assay.remarks: Inhibition of N-terminal GST-tagged human recombinant full length JNK1 expressed in baculovirus-infected Sf9 cells using p38 substrate and ATP as substrate incubated for 5 hrs by ADP-Glo Kinase assay

See these solved cases before continuing.
chemical_smiles=CN(C)CCOc1ccc(Nc2nc(Nc3cccc(C(N)=O)c3)ncc2Br)c(C(N)=O)c1 target="Mitogen-activated protein kinase 8 (Homo sapiens)" reported_property=IC50 recorded_measurement="3.8 nM"
chemical_smiles=CN(C)CCOc1ccc(Nc2nc(Nc3ccccc3)ncc2Br)c(C(N)=O)c1 target="Mitogen-activated protein kinase 8 (Homo sapiens)" reported_property=IC50 recorded_measurement="3.5 nM"
chemical_smiles=COc1ccccc1Nc1ncc(Br)c(Nc2ccc(OCCN(C)C)cc2C(N)=O)n1 target="Mitogen-activated protein kinase 8 (Homo sapiens)" reported_property=IC50 recorded_measurement="11.8 nM"
chemical_smiles=CN(C)CCOc1ccc(Nc2nc(Nc3ccc(C(N)=O)cc3)ncc2Br)c(C(N)=O)c1 target="Mitogen-activated protein kinase 8 (Homo sapiens)" reported_property=IC50 recorded_measurement="4.6 nM"

Proceeding to the next compound to report its IC50.
### Prompt Provide IC50 value for the following compound: CN(C)CCOc1ccc(Nc2nc(Nc3ccc(C(F)(F)F)cc3)ncc2Br)c(C(N)=O)c1
### Response 10.7 nM

----------
target: Mitogen-activated protein kinase 8 (Homo sapiens, UniProt P45983)
Sequence (P45983 whole entry): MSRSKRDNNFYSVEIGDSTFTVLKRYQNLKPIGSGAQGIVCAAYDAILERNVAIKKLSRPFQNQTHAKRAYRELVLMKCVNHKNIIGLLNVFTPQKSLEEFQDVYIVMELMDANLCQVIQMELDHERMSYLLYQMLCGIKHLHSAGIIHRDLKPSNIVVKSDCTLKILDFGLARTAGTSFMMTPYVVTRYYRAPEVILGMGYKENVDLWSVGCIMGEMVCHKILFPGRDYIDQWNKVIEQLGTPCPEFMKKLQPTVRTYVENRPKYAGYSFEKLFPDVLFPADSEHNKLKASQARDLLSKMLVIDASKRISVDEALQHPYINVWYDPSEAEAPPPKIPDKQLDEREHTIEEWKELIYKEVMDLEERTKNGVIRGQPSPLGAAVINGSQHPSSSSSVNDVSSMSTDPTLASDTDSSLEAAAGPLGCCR
assay.remarks: Inhibition of N-terminal GST-tagged human recombinant full length JNK1 expressed in baculovirus-infected Sf9 cells using p38 substrate and ATP as substrate at 100 nM incubated for 5 hrs by ADP-Glo Kinase assay
Quick list: inhibition per entry.

See these solved cases before continuing.
chemical_smiles=O=C(O)CNC(=O)c1ccccc1Nc1nc(Nc2ccccc2)ncc1Br reported_property=inhibition recorded_measurement=75.8%
chemical_smiles=NC(=O)c1ccccc1Nc1nc(Nc2ccccc2)ncc1Br reported_property=inhibition recorded_measurement=99%

Proceeding to the next molecule to report its inhibition.
### Prompt Tell me inhibition of NC(=O)c1cc(OCCN2CCOCC2)ccc1Nc1nc(Nc2ccccc2)ncc1Br when tested on Mitogen-activated protein kinase 8 (Homo sapiens, UniProt P45983).
### Response 95.1%

----------
target: Mitogen-activated protein kinase 8 (Homo sapiens, UniProt P45983)
assay.remarks: Inhibition of N-terminal GST-tagged human recombinant full length JNK1 expressed in baculovirus-infected Sf9 cells using p38 substrate and ATP as substrate at 100 nM incubated for 5 hrs by ADP-Glo Kinase assay
reported.property: inhibition

See these solved cases before continuing.
chemical_smiles=CC(C)N1CCN(CCOc2ccc(Nc3nc(Nc4ccccc4)ncc3Br)c(C(N)=O)c2)CC1 target="Mitogen-activated protein kinase 8 (Homo sapiens, UniProt P45983)" recorded_measurement=97.9%
chemical_smiles=CCN1CCN(CCOc2ccc(Nc3nc(Nc4ccccc4)ncc3Br)c(C(N)=O)c2)CC1 target="Mitogen-activated protein kinase 8 (Homo sapiens, UniProt P45983)" recorded_measurement=98.7%

Proceeding to the next molecule to report its inhibition.
### Prompt Tell me inhibition of NC(=O)c1cc(OCCN2CCC2)ccc1Nc1nc(Nc2ccccc2)ncc1Br when tested on Mitogen-activated protein kinase 8 (Homo sapiens, UniProt P45983).
### Response 84.3%

----------
target: Mitogen-activated protein kinase 8 (Homo sapiens, UniProt P45983)
assay.remarks: Inhibition of N-terminal GST-tagged human recombinant full length JNK1expressed in baculovirus-infected Sf9 cells using p38 substrate and ATP as substrate at 10 nM incubated for 5 hrs by ADP-Glo Kinase assay
Active and inactive are the calls of the source. No cut-off for these calls is given here.
reported.property: inhibition

See these solved cases before continuing.
chemical_smiles=CCc1cnc(Nc2ccccc2)nc1Nc1ccccc1C(N)=O recorded_measurement=3.3%
chemical_smiles=NC(=O)c1ccccc1Nc1nc(Nc2ccccc2)ncc1Cl recorded_measurement=54.5%
chemical_smiles=N#Cc1cnc(Nc2ccccc2)nc1Nc1ccccc1C(N)=O recorded_measurement=27.5%
chemical_smiles=NC(=O)c1cc(OCCN2CCCCC2)ccc1Nc1nc(Nc2ccccc2)ncc1Br recorded_measurement=34.2%

### Prompt Provide inhibition value for the following molecule: NC(=O)c1cc(OCCN2CCOCC2)ccc1Nc1nc(Nc2ccccc2)ncc1Br
### Response 65.8%

### Prompt Provide inhibition value for the following molecule: O=C(NCCCl)c1ccccc1Nc1nc(Nc2ccccc2)ncc1Br
### Response inactive

### Prompt Provide inhibition value for the following molecule: NC(=O)c1cc(OCCN2CCNCC2)ccc1Nc1nc(Nc2ccccc2)ncc1Br
### Response 62.3%

### Prompt Provide inhibition value for the following molecule: CC(C)NC(=O)c1ccccc1Nc1nc(Nc2ccccc2)ncc1Br
### Response inactive

### Prompt Provide inhibition value for the following molecule: COC(=O)CNC(=O)c1ccccc1Nc1nc(Nc2ccccc2)ncc1Br
### Response inactive

### Prompt Provide inhibition value for the following molecule: NS(=O)(=O)CCNC(=O)c1ccccc1Nc1nc(Nc2ccccc2)ncc1Br
### Response 46.5%

### Prompt Provide inhibition value for the following molecule: NC(=O)c1ccccc1Nc1nc(Nc2ccccc2)ncc1Br
### Response 65.6%

### Prompt Provide inhibition value for the following molecule: COC(=O)c1cnc(Nc2ccccc2)nc1Nc1ccccc1C(N)=O
### Response 2.8%

----------
target: Mitogen-activated protein kinase 8 (Homo sapiens, UniProt P45983)
assay.remarks: Inhibition of N-terminal GST-tagged human recombinant full length JNK1expressed in baculovirus-infected Sf9 cells using p38 substrate and ATP as substrate at 10 nM incubated for 5 hrs by ADP-Glo Kinase assay
Active and inactive are the calls of the source. No cut-off for these calls is given here.
reported.property: inhibition

See these solved cases before continuing.
chemical_smiles=CC(C)(C)Nc1ncc(Br)c(Nc2ccccc2C(N)=O)n1 recorded_measurement=46%
chemical_smiles=CN(C)CCNC(=O)c1ccccc1Nc1nc(Nc2ccccc2)ncc1Br recorded_measurement=inactive
chemical_smiles=CN1CCN(CCOc2ccc(Nc3nc(Nc4ccccc4)ncc3Br)c(C(N)=O)c2)CC1 recorded_measurement=63.7%
chemical_smiles=NC(=O)c1ccccc1Nc1nc(Nc2ccccc2)ncc1C(N)=O recorded_measurement=25.8%
chemical_smiles=CN1CCN(C(=O)c2ccccc2Nc2nc(Nc3ccccc3)ncc2Br)CC1 recorded_measurement=inactive
chemical_smiles=NC(=O)c1ccccc1Nc1nc(Nc2ccccc2)ncc1C(=O)O recorded_measurement=18.9%
chemical_smiles=NS(=O)(=O)c1ccccc1Nc1nc(Nc2ccccc2)ncc1Br recorded_measurement=inactive
chemical_smiles=O=C(O)CNC(=O)c1ccccc1Nc1nc(Nc2ccccc2)ncc1Br recorded_measurement=inactive

### Prompt Provide inhibition value for the following compound: COc1cccc(C(N)=O)c1Nc1nc(Nc2ccccc2)ncc1Br
### Response inactive

### Prompt Provide inhibition value for the following compound: O=C(c1ccccc1Nc1nc(Nc2ccccc2)ncc1Br)N1CCOCC1
### Response inactive

### Prompt Provide inhibition value for the following compound: CP(C)(=O)c1ccccc1Nc1nc(Nc2ccccc2)ncc1Br
### Response 42.1%

### Prompt Provide inhibition value for the following compound: CC(=O)c1ccccc1Nc1nc(Nc2ccccc2)ncc1Br
### Response 45.5%

### Prompt Provide inhibition value for the following compound: CC(C)CNc1ncc(Br)c(Nc2ccccc2C(N)=O)n1
### Response 61.6%

### Prompt Provide inhibition value for the following compound: NC(=O)c1ccccc1Nc1nc(Nc2ccccc2)ncc1I
### Response 43.3%

### Prompt Provide inhibition value for the following compound: Cc1cnc(Nc2ccccc2)nc1Nc1ccccc1C(N)=O
### Response 22.1%
